Biological target: GLP-1R (Homo sapiens, UniProt P43220)
Sequence (P43220 24-463): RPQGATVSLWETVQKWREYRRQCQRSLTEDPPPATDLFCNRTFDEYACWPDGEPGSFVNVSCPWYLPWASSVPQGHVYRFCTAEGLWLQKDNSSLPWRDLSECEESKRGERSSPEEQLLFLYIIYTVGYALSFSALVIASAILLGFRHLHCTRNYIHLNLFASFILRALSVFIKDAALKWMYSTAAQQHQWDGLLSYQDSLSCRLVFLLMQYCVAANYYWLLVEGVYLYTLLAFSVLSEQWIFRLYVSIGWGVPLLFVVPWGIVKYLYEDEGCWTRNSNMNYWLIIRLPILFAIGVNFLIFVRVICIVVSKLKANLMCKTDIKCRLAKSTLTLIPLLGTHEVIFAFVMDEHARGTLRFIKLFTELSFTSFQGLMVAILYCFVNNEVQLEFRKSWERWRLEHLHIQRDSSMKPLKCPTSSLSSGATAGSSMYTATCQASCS
Experiment: GLP-1R activation: cAMP increase in CHO cells stably expressing GLP-1R
Format: cell-based
Settings: cAMP increase, CHO cells stably expressing GLP-1R, 10 point dose response, 30 minutes incubation; read-out: EC50
attribute.measured: pEC50
Numbers only, as −log10 of the molar value.

N#CCC1(Cn2c(Cc3cc(F)c(-c4cccc(OCc5ccc(Cl)cc5F)n4)cc3F)nc3ccc(C(=O)O)cc32)CC1	10.05

For the 6 molecules below, give their pEC50 values.
1. COCC1(Cn2c(Cc3ccc(-c4cccc(OCc5ccc(C#N)cc5F)n4)cc3F)nc3ccc(C(=O)O)cc32)CC1
2. COCCn1c(C2CCc3cc(-c4cccc(OCc5ccc(C#N)cc5F)n4)ccc32)nc2ccc(C(=O)O)cc21 (stereo not shown) [Example 36]
3. COCCn1c(Cc2ccc(-c3cccc(OCc4ccc(C#N)cc4F)n3)cc2F)nc2cccc(C(=O)O)c21
4. COCCn1c(Cc2ccc(-c3cc(F)cc(OCc4ccc(C#N)cc4F)c3)cc2F)nc2ccc(C(=O)O)cc21
5. COC(CN)Cn1c(Cc2ccc(-c3cccc(OCc4ccc(C#N)cc4F)n3)cc2F)nc2ccc(C(=O)O)cc21 (single isomer, unassigned) [Example 339]
6. O=C(O)c1ccc2nc(Cc3ccc(-c4cccc(OCc5ccc(C(F)F)cc5F)n4)cc3F)n(CC34CC(CO3)C4)c2c1

1. 8.11
2. 6.97
3. 5.35
4. 7.11
5. 6.25
6. 8.52

Values were extracted from patent US11702404B2.
